- TEST SUMMARY: Caco2 permeability assay
- Format: in vitro ADME
- RECORDED CONDITIONS: human, Caco-2
OUTCOME MEASURE: efflux ratio at 120 min, 10 μM

Prompt: So what's the measured efflux ratio at 120 min, 10 μM for this one? CN/C(=N/CCSCc1nc[nH]c1C)NC#N
Completion: > 2

====

- TEST SUMMARY: Pharmacokinetic studies in female CD1 mice
- RECORDED CONDITIONS: CD-1, mouse, plasma, iv, 5 mg/kg
OUTCOME MEASURE: clearance at 24 h (mL/min/kg)
Give your result in mL/min/kg as a bare value.

Prompt: So what's the measured clearance at 24 h for this one? Cn1ccc2cc(-c3cnc4ccc(C(=O)N5CCCCC5)cc4n3)ccc2c1=O
Completion: 30
